Recorded solubility for the following compounds
# TEST NAME: Solubility of the compound
# Type: physicochemical

Use the examples below as a reference point.
COc1cc(Oc2c(C)cc(C#N)cc2C)cc(NC2CCN(Cc3ccc(C(N)=O)cc3)CC2)n1    > 257 µM
Cc1cc(C)c(Oc2cc(Nc3ccc(C#N)cc3)nc(OCCCN3CCOCC3)c2)c(C)c1    > 11 µM
COc1cc(Oc2c(C)cc(C#N)cc2C)cc(NC2CCN(Cc3ccncc3)CC2)n1    > 11 µM
Cc1cc(C#N)cc(C)c1Oc1cc(Cl)nc(Nc2ccc(CN3CCOCC3)cc2)c1    > 56 µM

[in] Which solubility is listed for `Cc1cc(C)c(Oc2cc(Cl)nc(NC3CCN(Cc4ccccc4)CC3)c2)c(C)c1` ?
[out] > 287 µM

[in] Suppose we examine the compound `Cc1cc(C#N)cc(C)c1Oc1cc(Cl)nc(NC2CCN(CC3CC3)CC2)c1` ; what solubility value has been reported?
[out] > 304 µM

[in] // returns reported solubility for input `Cc1cc(C)c(Oc2cc(Cl)nc(Nc3ccc(C#N)cc3)c2)c(C)c1`
[out] > 14 µM

[in] Form field: reported solubility of `Cc1cc(C)c(Oc2cc(Cl)nc(Nc3ccc(CN4CCOCC4)cc3)c2)c(C)c1`
[out] > 57 µM

---

# maps each entry to its CC50 at 120 h
# TEST NAME: Cytotoxicity against mock-infected human MT4 cells assessed as reduction in cell viability after 5 days by MTT assay
# Assay type: toxicity, cell-based

Nc1ccn([C@@H]2CS[C@H](CO)O2)c(=O)n1    > 87.2 µM
Cc1ccnc2c1NC(=O)c1cccnc1N2C1CC1    > 15 µM
Cc1cc(C#N)cc(C)c1Oc1nc(Nc2ccc(C#N)cc2)nc(N)c1Br    > 4.6 µM

[in] Value lookup for CC50 at 120 h; key = `O=C1Nc2ccc(Cl)cc2[C@@](C#CC2CC2)(C(F)(F)F)O1`
[out] > 6.3 µM

---

# TEST NAME: Solubility of the compound
# Type: physicochemical
REPORTED ENDPOINT: solubility

COc1cc(Oc2c(C)cc(C#N)cc2C)cc(NC2CCN(Cc3ccccc3)CC2)n1    > 56 µM
Cc1cc(C)c(Oc2cc(Cl)nc(NC3CCN(Cc4ccc(S(C)(=O)=O)cc4)CC3)c2)c(C)c1    > 49 µM

[in] Recorded solubility for `Cc1cc(C#N)cc(C)c1Oc1cc(Cl)nc(NC2CCN(CC3CCC3)CC2)c1` , please?
[out] > 59 µM

[in] Would you mind telling me what solubility value was observed for `Cc1cc(C)c(Oc2cc(Cl)nc(NC3CCN(Cc4ccc(S(N)(=O)=O)cc4)CC3)c2)c(C)c1` ?
[out] > 49 µM

[in] Which solubility value belongs to `COc1cc(Oc2c(C)cc(C#N)cc2C)cc(NC2CCN(Cc3ccc(S(N)(=O)=O)cc3)CC2)n1` ?
[out] > 48 µM

[in] Would you kindly share the measured solubility for `Cc1cc(C#N)cc(C)c1Oc1nc(Nc2ccc(C#N)cc2)nc(N)c1Br` ?
[out] < 1 µM

[in] Could you share which solubility value was measured for `Cc1cc(C)c(Oc2cc(Cl)nc(NC3CCN(CC4CC4)CC3)c2)c(C)c1` ?
[out] > 62 µM

[in] GET /values?readout=solubility&item= `COc1cc(Oc2c(C)cc(C#N)cc2C)cc(NC2CCN(Cc3ccc(S(C)(=O)=O)cc3)CC2)n1`
[out] > 48 µM

[in] Any idea what solubility was measured for `Cc1cc(C#N)cc(C)c1Oc1cc(Cl)nc(NC2CCN(Cc3ccc(S(N)(=O)=O)cc3)CC2)c1` ?
[out] > 48 µM

[in] Could you tell me which solubility is on file for `Cc1cc(C#N)cc(C)c1Oc1cc(Cl)nc(NC2CCN(Cc3ccccc3)CC2)c1` ?
[out] > 56 µM

[in] Consider the compound `Cc1cc(C#N)cc(C)c1Oc1cc(Cl)nc(NC2CCN(Cc3ccncc3)CC2)c1` and give its measured solubility.
[out] > 56 µM

Sourced from ChEMBL document CHEMBL3860023
